Catalogue of koff readings, one per entry.
# EXPERIMENTAL TARGET: T1, human CD22-ECD-His protein (human, UniProt P20273 20-687)
# T1 construct: Recombinant, from HEK293E cells; also called hCD22-ECD-His; human CD22-His protein; not shown: His tag
# T1 sequence: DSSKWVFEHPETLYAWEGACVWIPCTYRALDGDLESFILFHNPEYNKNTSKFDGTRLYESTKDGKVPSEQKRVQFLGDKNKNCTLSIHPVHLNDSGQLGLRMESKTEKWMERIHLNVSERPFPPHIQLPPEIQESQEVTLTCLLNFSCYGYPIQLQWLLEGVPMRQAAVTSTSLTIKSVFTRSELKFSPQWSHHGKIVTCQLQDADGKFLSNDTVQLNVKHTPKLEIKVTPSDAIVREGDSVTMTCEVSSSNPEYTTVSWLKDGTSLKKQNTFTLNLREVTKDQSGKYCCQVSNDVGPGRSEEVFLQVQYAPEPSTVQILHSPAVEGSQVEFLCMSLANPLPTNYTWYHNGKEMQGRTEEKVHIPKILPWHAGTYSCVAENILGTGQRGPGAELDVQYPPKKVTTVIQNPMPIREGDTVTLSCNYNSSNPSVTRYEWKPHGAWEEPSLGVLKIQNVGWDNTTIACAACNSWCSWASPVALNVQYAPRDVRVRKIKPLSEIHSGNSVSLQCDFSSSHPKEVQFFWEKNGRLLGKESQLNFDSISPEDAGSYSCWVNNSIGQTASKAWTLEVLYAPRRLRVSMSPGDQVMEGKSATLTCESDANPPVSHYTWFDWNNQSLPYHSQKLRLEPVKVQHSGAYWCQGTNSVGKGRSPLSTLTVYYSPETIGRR
# ASSAY EXPLANATION: SPR (Biacore), antibody captured on Protein A chip, CD22-ECD-His in solution

- BINDER: "F2.151.13 (antibody, human IgG1, lambda, V domains shown, Chimeric IgG1 lambda) VH: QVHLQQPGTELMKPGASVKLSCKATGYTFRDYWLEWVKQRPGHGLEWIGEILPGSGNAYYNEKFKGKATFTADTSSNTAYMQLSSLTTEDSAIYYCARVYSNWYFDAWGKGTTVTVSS VL: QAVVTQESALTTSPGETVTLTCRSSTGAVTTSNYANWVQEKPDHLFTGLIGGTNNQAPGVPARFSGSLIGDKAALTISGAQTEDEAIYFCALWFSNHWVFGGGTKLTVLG"
  koff: "0.000533 s⁻¹"
- BINDER: "F2.343.16 (antibody, human IgG1, lambda, V domains shown, Chimeric IgG1 lambda) VH: QVQLKQSGPGLVQPSQSLSITCTVSGFSLTGYGVQWVRQSPGKGLEWLGVIWGGGGTDYNAAFISRLNIIKDNSKSQVFFKMNSLQADDTAIYYCARYSKYGHFDVWGTGTAVTVSS VL: QAVVTQESALTTSPGETVTLTCRSSTGAVTTSNYANWVQEKPDHLFTGLIGGTYNRVPGVPARFSGSLIGDKAALTITGAQTEDEAIYFCALWYSNHFWVFGGGTKLTVLG"
  koff: "0.101 s⁻¹"

Here is another binder to look at.
Prompt: Quick one: koff of F1.224.1 (antibody, human IgG1, kappa, V domains shown, Chimeric IgG1 kappa) VH: EVLLHQSGPELVKPGASVKISCKASGYTFTDFNMDWVRQRHGQSLEWIGDVNPNNGGTIYNQKFKGKATLTVDKSSSTVYMDLRSLTSDDTAVYYCVRLGTSDYGEAWFISWGQGTVVTVSA VL: DIVLTQSPASLAVSLGQRATISCRASQSVSTPRYSFMHWYQQKPGQPPKLLIKYASNLESGFPARFTGSGSGTDFTLNIHPVEEEDTAAYYCQQSWAIPWTFGGGTKLEIKR ?
Completion: 0.000267 s⁻¹
